# Target system: Protein kinase C alpha type (Homo sapiens, UniProt P17252)
# Assay comment: Inhibition of partially purified recombinant human calcium sensitive protein kinase C alpha
Measurement label: IC50 (µM)
Answer with a number only, understood to be in µM.

Supply measured IC50 of Cn1nnc(-c2cccc(O)c2C(=O)c2c(O)cc(C(=O)OC3CCCC3NC(=O)c3ccc(O)cc3)cc2O)n1 (stereo not drawn) in your reply. 3.6

Supply measured IC50 of Cn1nnnc1-c1cccc(O)c1C(=O)c1c(O)cc(C(=O)OC2CCCC2NC(=O)c2ccc(O)cc2)cc1O (stereo not drawn) in your reply. 11

Supply measured IC50 of O=C(NC1CNCCC[C@H]1OC(=O)c1cc(O)c(C(=O)c2ccccc2C(=O)O)c(O)c1)c1ccc(O)cc1 (stereo partly drawn) in your reply. 10

Supply measured IC50 of O=C(NC1CNCCC[C@H]1OC(=O)c1cc(O)c(C(=O)c2c(O)cccc2C(=O)O)c(O)c1)c1ccc(O)cc1 (stereo partly drawn) in your reply. 0.067

Supply measured IC50 of O=C(NC1CCCC1OCc1cc(O)c(C(=O)c2c(O)cccc2C(=O)O)c(O)c1)c1ccc(O)cc1 (stereo not drawn) in your reply. 0.46

Supply measured IC50 of O=C(NC1CNCCC[C@H]1OC(=O)c1cc(O)c(C(=O)c2ncccc2C(=O)O)c(O)c1)c1ccc(O)cc1 (stereo partly drawn) in your reply. 37

Supply measured IC50 of O=C(NC1CNCC1OC(=O)c1cc(O)c(C(=O)c2c(O)ccc3ccccc23)c(O)c1)c1ccc(O)cc1 (stereo not drawn) in your reply. 5.6

---

# Target system: UniProtKB P17252
# Assay comment: Inhibition of partially purified recombinant human calcium sensitive protein kinase C alpha
Measurement label: pIC50
For clarity, pIC50 is expressed as the negative log10 of concentration in mol/L.

Supply measured pIC50 of O=C(O)COc1cccc(O)c1C(=O)c1c(O)cc(C(=O)OC2CCCC2NC(=O)c2ccc(O)cc2)cc1O (configuration not stated) in your reply. 5.66

Supply measured pIC50 of O=C(NC1CCCC1OC(=O)c1cc(O)c(C(=O)c2c(O)cccc2NS(=O)(=O)C(F)(F)F)c(O)c1)c1ccc(O)cc1 (configuration not stated) in your reply. 7.00

Supply measured pIC50 of O=C(NC1CCCC1OC(=O)c1ccc(C(=O)c2c(O)cccc2C(=O)O)c(O)c1)c1ccc(O)cc1 (configuration not stated) in your reply. 5.59

Supply measured pIC50 of N#Cc1cccc(O)c1C(=O)c1c(O)cc(C(=O)OC2CCCC2NC(=O)c2ccc(O)cc2)cc1O (configuration not stated) in your reply. 5.43

Supply measured pIC50 of O=C(NC1CNCCC[C@H]1OC(=O)c1cc(O)c(C2OC(=O)c3cccc(O)c32)c(O)c1)c1ccc(O)cc1 (some centres not stated) in your reply. 4.74

Supply measured pIC50 of O=C(NC1CCCC1OC(=O)c1ccc(C(=O)c2c(O)cccc2C(=O)O)cc1)c1ccc(O)cc1 (configuration not stated) in your reply. 4.47

Supply measured pIC50 of O=C(NC1CNCC1OC(=O)c1cc(O)c(C(=O)c2c(O)ccc3c2CCCC3)c(O)c1)c1ccc(O)cc1 (configuration not stated) in your reply. 6.37

---

For each record, write down the corresponding IC50.
# Target system: UniProt:P05771
# Sequence (P05771 whole entry): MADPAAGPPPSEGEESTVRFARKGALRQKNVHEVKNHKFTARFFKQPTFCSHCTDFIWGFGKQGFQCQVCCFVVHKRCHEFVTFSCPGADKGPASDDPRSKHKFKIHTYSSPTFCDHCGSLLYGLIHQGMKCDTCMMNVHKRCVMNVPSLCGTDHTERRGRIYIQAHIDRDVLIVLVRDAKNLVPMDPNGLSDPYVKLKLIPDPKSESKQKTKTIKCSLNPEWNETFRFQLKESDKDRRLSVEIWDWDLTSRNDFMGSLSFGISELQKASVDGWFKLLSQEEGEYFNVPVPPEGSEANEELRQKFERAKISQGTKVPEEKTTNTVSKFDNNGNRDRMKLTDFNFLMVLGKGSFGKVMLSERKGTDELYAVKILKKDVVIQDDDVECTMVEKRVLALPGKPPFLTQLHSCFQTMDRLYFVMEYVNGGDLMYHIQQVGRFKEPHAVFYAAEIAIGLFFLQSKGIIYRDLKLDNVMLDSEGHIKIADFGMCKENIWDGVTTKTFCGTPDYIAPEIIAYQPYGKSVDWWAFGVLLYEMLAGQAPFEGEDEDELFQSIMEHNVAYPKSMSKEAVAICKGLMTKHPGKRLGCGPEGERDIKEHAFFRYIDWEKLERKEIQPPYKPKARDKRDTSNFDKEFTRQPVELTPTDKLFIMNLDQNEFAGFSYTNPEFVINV
# Assay comment: Inhibition of partially purified recombinant human calcium sensitive protein kinase C beta 2
Answer with a number only, understood to be in µM.

Supply measured IC50 of O=C(NC1CNCC1OC(=O)c1cc(O)c(C(=O)c2c(O)ccc3c2CCCC3)c(O)c1)c1ccc(O)cc1 (stereo not drawn) in your reply. 0.26

Supply measured IC50 of O=C(NC1CNCC1OC(=O)c1cc(O)c2c(c1)C(=O)c1cccc(O)c1C2=O)c1ccc(O)cc1 (stereo not drawn) in your reply. 25

Supply measured IC50 of NCCOc1cccc(O)c1C(=O)c1c(O)cc(C(=O)OC2CCCC2NC(=O)c2ccc(O)cc2)cc1O (stereo not drawn) in your reply. 24

Supply measured IC50 of CC(=O)Nc1cccc(O)c1C(=O)c1c(O)cc(C(=O)OC2CCCC2NC(=O)c2ccc(O)cc2)cc1O (stereo not drawn) in your reply. 4.8

Supply measured IC50 of COc1cccc(O)c1C(=O)c1c(O)cc(C(=O)O[C@@H]2CCCNCC2NC(=O)c2ccc(O)cc2)cc1O (stereo partly drawn) in your reply. 9.5

Supply measured IC50 of O=C(NC1CNCCC[C@H]1OC(=O)c1cc(O)c(C(=O)c2ccccc2O)c(O)c1)c1ccc(O)cc1 (stereo partly drawn) in your reply. 38

Supply measured IC50 of O=C(NC1CNCC1OC(=O)c1ccc(-c2c(O)cccc2C(=O)O)cc1)c1ccc(O)cc1 (stereo not drawn) in your reply. 40

---

For each record, write down the corresponding pIC50.
# Target system: cAMP-dependent protein kinase catalytic subunit alpha (Bos taurus, UniProt P00517)
# Assay comment: Inhibition of cAMP-dependent Protein kinase A (PKA)
For clarity, pIC50 is expressed as the negative log10 of concentration in mol/L.

Provide cAMP-dependent protein kinase catalytic subunit alpha (Bos taurus, UniProt P00517) pIC50 reading for O=C(NC1CNCC1OC(=O)c1cc(O)c(C(=O)c2c(O)cccc2C(=O)O)c(O)c1)c1ccc(O)cc1 (stereo not given) . 7.22

Provide cAMP-dependent protein kinase catalytic subunit alpha (Bos taurus, UniProt P00517) pIC50 reading for O=C(NC1CCCC1OC(=O)c1ccc(C(=O)c2c(O)cccc2C(=O)O)cc1)c1ccc(O)cc1 (stereo not given) . 5.77

Provide cAMP-dependent protein kinase catalytic subunit alpha (Bos taurus, UniProt P00517) pIC50 reading for O=C(NC1CNCCC[C@H]1OC(=O)c1cc(O)c(C(=O)c2ccccc2C(=O)O)c(O)c1)c1ccc(O)cc1 (stereo not given in full) . 6.00

Provide cAMP-dependent protein kinase catalytic subunit alpha (Bos taurus, UniProt P00517) pIC50 reading for O=C(NC1CCCC1OC(=O)c1ccc(C(=O)c2c(O)cccc2C(=O)O)c(O)c1)c1ccc(O)cc1 (stereo not given) . 6.46

Provide cAMP-dependent protein kinase catalytic subunit alpha (Bos taurus, UniProt P00517) pIC50 reading for O=C(NC1CNCC1OC(=O)c1cc(O)c(C(=O)Nc2ccccc2C(=O)O)c(O)c1)c1ccc(O)cc1 (stereo not given) . 5.72

---

# Target system: UniProt P17252
# Assay comment: Inhibition of partially purified recombinant human calcium sensitive protein kinase C alpha
For each record, write down the corresponding pIC50.
For clarity, pIC50 is expressed as the negative log10 of concentration in mol/L.

Supply measured pIC50 of CS(=O)(=O)Nc1cccc(O)c1C(=O)c1c(O)cc(C(=O)OC2CCCC2NC(=O)c2ccc(O)cc2)cc1O (stereo not drawn) in your reply. 6.30

Supply measured pIC50 of O=C(NC1CNCCC[C@H]1OC(=O)c1cc(O)c(C(=O)c2c(O)cccc2O)c(O)c1)c1ccc(O)cc1 (stereo partly drawn) in your reply. 6.07

Supply measured pIC50 of COc1cccc(O)c1C(=O)c1c(O)cc(C(=O)O[C@@H]2CCCNCC2NC(=O)c2ccc(O)cc2)cc1O (stereo partly drawn) in your reply. 4.60

Supply measured pIC50 of O=C(NC1CNCC1OC(=O)c1cc(O)c2c(c1)C(=O)c1cccc(O)c1C2=O)c1ccc(O)cc1 (stereo not drawn) in your reply. 4.37

Supply measured pIC50 of O=C(NC1CNCCC[C@H]1OC(=O)c1cc(O)c(C(=O)c2ccccc2O)c(O)c1)c1ccc(O)cc1 (stereo partly drawn) in your reply. 4.01

---

# Target system: cAMP-dependent protein kinase catalytic subunit alpha (Bos taurus, UniProt P00517)
# Assay comment: Inhibition of cAMP-dependent Protein kinase A (PKA)
// classify: if (IC50 < 400 nM) 1 else -1

Consider the compound O=C(NC1CNCC1OC(=O)c1cc(O)c(C(=O)c2c(C(=O)O)ccc3ccccc23)c(O)c1)c1ccc(O)cc1 (stereo unspecified) . Is its IC50 strictly less than 400 nM? 1

Consider the compound O=C(NC1CNCCC[C@H]1OC(=O)c1cc(O)c(C2OC(=O)c3cccc(O)c32)c(O)c1)c1ccc(O)cc1 (stereo partly specified) . Is its IC50 strictly less than 400 nM? 1

Consider the compound Cn1nnc(-c2cccc(O)c2C(=O)c2c(O)cc(C(=O)OC3CCCC3NC(=O)c3ccc(O)cc3)cc2O)n1 (stereo unspecified) . Is its IC50 strictly less than 400 nM? -1

Consider the compound O=C(NC1CNCCC[C@H]1OC(=O)c1cc(O)c(C(=O)C2CCCC[C@@H]2C(=O)O)c(O)c1)c1ccc(O)cc1 (stereo partly specified) . Is its IC50 strictly less than 400 nM? -1

Consider the compound O=C(NC1CNCC1OC(=O)c1cc(O)c(C(=O)c2c(O)ccc3c2CCCC3)c(O)c1)c1ccc(O)cc1 (stereo unspecified) . Is its IC50 strictly less than 400 nM? 1

Consider the compound O=C(O)COc1cccc(O)c1C(=O)c1c(O)cc(C(=O)OC2CCCC2NC(=O)c2ccc(O)cc2)cc1O (stereo unspecified) . Is its IC50 strictly less than 400 nM? -1

Consider the compound COc1cccc(O)c1C(=O)c1c(O)cc(C(=O)O[C@@H]2CCCNCC2NC(=O)c2ccc(O)cc2)cc1O (stereo partly specified) . Is its IC50 strictly less than 400 nM? 1

Consider the compound COc1cccc(OC)c1C(=O)c1c(O)cc(C(=O)O[C@@H]2CCCNCC2NC(=O)c2ccc(O)cc2)cc1O (stereo partly specified) . Is its IC50 strictly less than 400 nM? 1

Consider the compound Cn1nnnc1-c1cccc(O)c1C(=O)c1c(O)cc(C(=O)OC2CCCC2NC(=O)c2ccc(O)cc2)cc1O (stereo unspecified) . Is its IC50 strictly less than 400 nM? -1

Consider the compound O=C(O)CN(C(=O)c1c(O)cc(C(=O)OC2CNCC2NC(=O)c2ccc(O)cc2)cc1O)c1ccccc1 (stereo unspecified) . Is its IC50 strictly less than 400 nM? -1

Consider the compound O=C(NC1CCCC1OC(=O)c1cc(O)c(C(=O)c2c(O)cccc2NS(=O)(=O)C(F)(F)F)c(O)c1)c1ccc(O)cc1 (stereo unspecified) . Is its IC50 strictly less than 400 nM? 1

Consider the compound O=C(NC1CNCC1OC(=O)c1cc(O)c2c(c1)C(=O)c1cccc(O)c1C2=O)c1ccc(O)cc1 (stereo unspecified) . Is its IC50 strictly less than 400 nM? -1

Consider the compound N#Cc1cccc(O)c1C(=O)c1c(O)cc(C(=O)OC2CCCC2NC(=O)c2ccc(O)cc2)cc1O (stereo unspecified) . Is its IC50 strictly less than 400 nM? -1

Consider the compound O=C(NC1CNCCC[C@H]1OC(=O)c1cc(O)c(C(=O)c2c(O)cccc2O)c(O)c1)c1ccc(O)cc1 (stereo partly specified) . Is its IC50 strictly less than 400 nM? -1

Consider the compound O=C(NC1CCCC1OCc1cc(O)c(C(=O)c2c(O)cccc2C(=O)O)c(O)c1)c1ccc(O)cc1 (stereo unspecified) . Is its IC50 strictly less than 400 nM? 1

Consider the compound O=C(NC1CNCCC[C@H]1OC(=O)c1cc(O)c(Cc2c(O)cccc2C(=O)O)c(O)c1)c1ccc(O)cc1 (stereo partly specified) . Is its IC50 strictly less than 400 nM? -1
